target system: CYP1A1 (Mus musculus, UniProt P30561)
Sequence (P30561 whole entry): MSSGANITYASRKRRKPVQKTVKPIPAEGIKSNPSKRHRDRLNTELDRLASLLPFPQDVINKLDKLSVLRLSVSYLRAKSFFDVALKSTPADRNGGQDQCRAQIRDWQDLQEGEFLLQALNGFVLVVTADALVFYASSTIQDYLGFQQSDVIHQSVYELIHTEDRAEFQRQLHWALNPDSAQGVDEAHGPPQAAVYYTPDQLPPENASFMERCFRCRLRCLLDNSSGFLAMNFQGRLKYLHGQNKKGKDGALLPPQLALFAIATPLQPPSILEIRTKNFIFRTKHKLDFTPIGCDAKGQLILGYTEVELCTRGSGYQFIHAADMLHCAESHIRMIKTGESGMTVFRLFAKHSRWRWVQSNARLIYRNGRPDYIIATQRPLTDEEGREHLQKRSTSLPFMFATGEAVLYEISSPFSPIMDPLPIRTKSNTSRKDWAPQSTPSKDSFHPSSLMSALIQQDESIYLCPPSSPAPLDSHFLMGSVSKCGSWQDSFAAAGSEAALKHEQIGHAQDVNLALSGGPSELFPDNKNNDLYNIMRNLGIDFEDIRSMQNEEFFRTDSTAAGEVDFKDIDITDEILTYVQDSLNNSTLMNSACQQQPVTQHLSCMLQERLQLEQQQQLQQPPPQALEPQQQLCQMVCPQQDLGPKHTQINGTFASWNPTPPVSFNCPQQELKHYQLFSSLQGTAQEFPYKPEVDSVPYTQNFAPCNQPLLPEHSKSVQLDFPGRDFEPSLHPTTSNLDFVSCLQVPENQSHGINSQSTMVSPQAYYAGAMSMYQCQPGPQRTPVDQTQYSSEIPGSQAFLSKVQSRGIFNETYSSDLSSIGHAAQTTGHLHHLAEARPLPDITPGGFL
assay procedure: Induction of Ah receptor in mouse Hepa-1c1c7 cells assessed as induction of CYP1A1 activity at 10 uM after 48 hrs by EROD assay relative to control
Assay type: cell-based
condition: probe ethoxyresorufin (EROD), read-out: FC
// label = satisfied if fold induction at 48 h, 10 µM is not less than 1, otherwise not satisfied

>>> qualitative_label("COc1cc(OC)c2c(c1)OC(=O)/C2=C\\c1ccccc1Cl")
"not satisfied"

[in] Threshold query (fold induction at 48 h, 10 µM >= 1) on O=C1/C(=C/c2cccc(Cl)c2)Oc2ccc(O)cc21
[out] satisfied

[in] Threshold query (fold induction at 48 h, 10 µM >= 1) on COc1cc(OC)c2c(c1)O/C(=C\c1ccccc1)C2=O
[out] satisfied

[in] Threshold query (fold induction at 48 h, 10 µM >= 1) on O=C1/C(=C/c2cccc(Cl)c2)Oc2cc(O)ccc21
[out] satisfied

[in] Threshold query (fold induction at 48 h, 10 µM >= 1) on COc1cc(OC)c2c(c1)O/C(=C\c1cccc(O)c1O)C2=O
[out] not satisfied

[in] Threshold query (fold induction at 48 h, 10 µM >= 1) on O=C1Oc2ccc(O)cc2/C1=C/c1ccc(Cl)cc1
[out] satisfied

====

assay procedure: Cytotoxicity against mouse Hepa-1c1c7 cells assessed as cell survival at 5 uM after 48 hrs by MTT assay
Assay type: cell-based
condition: read-out: Activity
property measured: viability at 48 h, 5 µM (%)
Give bare numbers, in %.

Here's what some known entries look like.
>>> observed_value("O=C1/C(=C/c2ccccc2Cl)Oc2ccccc21")
111
>>> observed_value("COc1cc(OC)c2c(c1)O/C(=C\\c1cccnc1)C2=O")
94

[in] Fill in: viability at 48 h, 5 µM of COc1ccc(/C=C2\Oc3cc(O)ccc3C2=O)cc1 is ___
[out] 91

====

assay procedure: Induction of NQO1 activity in mouse Hepa-1c1c7 cells at 5 uM after 48 hrs relative to control
Please respond with reported fold change (FC) for every item in the list.
Give bare numbers.

Here's what some known entries look like.
>>> observed_value("O=C1/C(=C/c2ccccc2Cl)Oc2cc(O)ccc21")
1.02
>>> observed_value("COc1cc(OC)c2c(c1)O/C(=C\\c1ccccn1)C2=O")
2.26
>>> observed_value("O=C1/C(=C/c2ccccc2O)Oc2cc(O)cc(O)c21")
2.92
>>> observed_value("COc1cc(OC)c2c(c1)O/C(=C\\c1cccc(F)c1)C2=O")
4.47
>>> observed_value("O=C1/C(=C/c2ccccc2Cl)Oc2ccc(O)cc21")
1.33
>>> observed_value("O=C1/C(=C/c2ccc(Cl)cc2)Oc2ccc(O)cc21")
1.32
>>> observed_value("COc1cc(OC)c2c(c1)O/C(=C\\c1ccc(N(C)C)cc1)C2=O")
1.16
>>> observed_value("O=C1Oc2ccc(O)cc2/C1=C/c1ccccc1")
1.15

For each of the compounds below, state fold change (FC).
1. COc1cc(OC)c2c(c1)O/C(=C\c1cccc(O)c1)C2=O
2. O=C1Oc2ccc(O)cc2/C1=C/c1ccc(Cl)cc1
3. O=C1Oc2ccc(O)cc2/C1=C/c1ccc(F)cc1
4. COc1cccc(/C=C2\Oc3cc(O)ccc3C2=O)c1
5. COc1cc(OC)c2c(c1)O/C(=C\c1ccc(C)cc1)C2=O
6. O=C1/C(=C/c2ccccc2Cl)Oc2ccccc21
7. O=C1Oc2ccc(O)cc2/C1=C/c1ccccc1Cl
8. COc1ccc(/C=C2\Oc3cc(O)cc(O)c3C2=O)cc1

[out]
1.2
2.49
1.2
1.22
1.34
0.92
1.02
1.15
